B1: Gamma-crystallin S, residues 96 to 176; numbered along this chain, P22914 (parent)
chain: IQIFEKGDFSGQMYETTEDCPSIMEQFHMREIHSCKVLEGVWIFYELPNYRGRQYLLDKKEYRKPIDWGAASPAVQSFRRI

variants of: B1; experiment: abundance fitness (aPCA) (normalised: wild type 0, dead -1); higher = more abundant; growth selection in yeast, the domain comes from the species named; details: Homo sapiens
Rule: t for abundance fitness not less than -0.04, f for anything less.

See these solved cases before continuing.
IQIFEKGDFSGQMYETTEDCPSIMEQFHMREIHSCKVLEGVWIFYELPNYRGRQYLLDKKNYRKPIDWGAASPAVQSFRRI [E61N] ... t
IQIFEKGDFSIQMYETTEDCPSIMEQFHMREIHSCKVLEGVWIFYELPNYRGRQYLLDKKEYRKPIDWGAASPAVQSFRRI [G11I] ... f
IQIFEKGDFSGQMYETTEDCPSAMEQFHMREIHSCKVLEGVWIFYELPNYRGRQYLLDKKEYRKPIDWGAASPAVQSFRRI [I23A] ... t
IQIFEKGDFSGQMYETTEDCPSIMEQFHDREIHSCKVLEGVWIFYELPNYRGRQYLLDKKEYRKPIDWGAASPAVQSFRRI [M29D] ... t

Qu. Dear colleague, could you confirm whether IQIFEKGDWSGQMYETTEDCPSIMEQFHMREIHSCKVLEGVWIFYELPNYRGRQYLLDKKEYRKPIDWGAASPAVQSFRRI [F9W] has abundance fitness at or above -0.04?
Ans. t

Qu. How about IQIFEKGDFSGQMYETTEDCPSIMEQFHMREIHSEKVLEGVWIFYELPNYRGRQYLLDKKEYRKPIDWGAASPAVQSFRRI [C35E] ?
Ans. f

Qu. How about IQIFEKGDFSGQMYETTEDCPSIMEQFHMREIHSCKVLEGVWIFYELPNYRGRQYLLDKKEYRKPIDWGAASPAVQSFTRI [R79T] ?
Ans. t

Qu. How about IQIFEKGDFSGQMYETTEDCPSIMEQFHMREIHSCKVLEGVWIFYTLPNYRGRQYLLDKKEYRKPIDWGAASPAVQSFRRI [E46T] ?
Ans. f

Qu. How about IQIFEKGDFSGQMYETTEDCPSIMEQFHMREIHSCKVLEGVWIFYELPNYRGRQYLLDKKQYRKPIDWGAASPAVQSFRRI [E61Q] ?
Ans. f

Qu. How about IQIFEKGDFSGQMFETTEDCPSIMEQFHMREIHSCKVLEGVWIFYELPNYRGRQYLLDKKEYRKPIDWGAASPAVQSFRRI [Y14F] ?
Ans. t

Qu. How about IQIFEKGFFSGQMYETTEDCPSIMEQFHMREIHSCKVLEGVWIFYELPNYRGRQYLLDKKEYRKPIDWGAASPAVQSFRRI [D8F] ?
Ans. t

Qu. How about IQIFEKGDFSGQMYETTEVCPSIMEQFHMREIHSCKVLEGVWIFYELPNYRGRQYLLDKKEYRKPIDWGAASPAVQSFRRI [D19V] ?
Ans. t

Qu. How about IQIFEKGDFSGQMYETTEDCPSIMEQFHMREIHSCKVLEGVWIFYNLPNYRGRQYLLDKKEYRKPIDWGAASPAVQSFRRI [E46N] ?
Ans. f

Source of measurements: the Human Domainome abundance scans (Beltran et al. 2025)
